Data origin, for the record: patent US20210356479A1

Biological target: T1, human Kell glycoprotein, K form (KEL1) (human, UniProt P23276 1-732)
T1 construct: whole, on cells; On human K/K or K+k+ RBCs and on RBCs of K transgenic mice; also called K antigen; K variant
T1 sequence (looked up): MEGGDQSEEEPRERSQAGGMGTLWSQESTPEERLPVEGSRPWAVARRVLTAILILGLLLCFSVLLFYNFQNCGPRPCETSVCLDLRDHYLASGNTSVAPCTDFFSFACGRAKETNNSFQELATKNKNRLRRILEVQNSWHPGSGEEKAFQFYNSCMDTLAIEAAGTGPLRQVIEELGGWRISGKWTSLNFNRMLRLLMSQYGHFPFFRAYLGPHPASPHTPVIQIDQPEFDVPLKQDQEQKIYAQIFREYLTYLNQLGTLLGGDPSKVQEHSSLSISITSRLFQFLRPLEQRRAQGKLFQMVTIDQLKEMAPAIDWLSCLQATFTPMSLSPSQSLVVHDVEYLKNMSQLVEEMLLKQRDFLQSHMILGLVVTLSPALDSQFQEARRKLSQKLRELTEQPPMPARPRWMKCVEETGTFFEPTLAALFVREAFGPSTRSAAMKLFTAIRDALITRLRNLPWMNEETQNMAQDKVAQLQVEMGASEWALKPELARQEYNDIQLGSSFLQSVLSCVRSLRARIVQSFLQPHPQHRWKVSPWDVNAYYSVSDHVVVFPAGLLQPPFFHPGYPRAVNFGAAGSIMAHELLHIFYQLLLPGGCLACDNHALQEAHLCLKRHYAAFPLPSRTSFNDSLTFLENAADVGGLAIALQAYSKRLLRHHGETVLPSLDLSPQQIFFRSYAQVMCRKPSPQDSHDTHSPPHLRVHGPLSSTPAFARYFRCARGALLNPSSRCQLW
Test: flow cytometry on human K+k+ RBCs, detected with polyclonal anti-IgG
outcome.measure: binding result

[
  {
    "binder": "PUMA 1 human IgG3-13 isoallotype (antibody, also called PUMA1-IgG3-13; not shown: human kappa light chain constant region (vector pFUSE2-CLIg-hk)) heavy: EVQLQQSGPELVKPGASVKMSCKASGYTFTDYYMKWVKQSHGKSLEWIGDLNPNNGDTFYNQKFKGKATLTVDKSSSTAYIQLNSLTSEDSAVYYCAREAGSSFGSSCNYWGQGTTLTVS light: SVVMTQTPKFLLVSAGDRVTITCKASQTVSKDVAWYQQQPGQSPKLLIYYASNRYTGVPDRFTGSGYGTDFTFTISTVQAEDLAVYFCQQDYSSPYTFGGGTKLEIK",
    "value.reported": "binds"
  },
  {
    "binder": "PUMA 1 human IgG3-03 isoallotype (antibody, also called PUMA1-IgG3-03; not shown: human kappa light chain constant region (vector pFUSE2-CLIg-hk)) heavy: EVQLQQSGPELVKPGASVKMSCKASGYTFTDYYMKWVKQSHGKSLEWIGDLNPNNGDTFYNQKFKGKATLTVDKSSSTAYIQLNSLTSEDSAVYYCAREAGSSFGSSCNYWGQGTTLTVS light: SVVMTQTPKFLLVSAGDRVTITCKASQTVSKDVAWYQQQPGQSPKLLIYYASNRYTGVPDRFTGSGYGTDFTFTISTVQAEDLAVYFCQQDYSSPYTFGGGTKLEIK",
    "value.reported": "binds"
  },
  {
    "binder": "PUMA 1 human IgG3-09 isoallotype (antibody, Isoallotype named in CLM-00007; not shown: human IgG3 heavy chain constant region, isoallotype IGHG3*09; human kappa light chain constant region (vector pFUSE2-CLIg-hk)) heavy: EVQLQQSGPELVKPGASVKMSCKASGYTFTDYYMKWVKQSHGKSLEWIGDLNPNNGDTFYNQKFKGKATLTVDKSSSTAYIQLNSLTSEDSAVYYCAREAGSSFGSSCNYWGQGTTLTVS light: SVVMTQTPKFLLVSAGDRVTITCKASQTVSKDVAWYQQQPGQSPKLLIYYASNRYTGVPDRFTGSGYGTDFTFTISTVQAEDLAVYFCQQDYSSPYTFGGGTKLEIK",
    "value.reported": "binds"
  }
]
